conditions: rat; liver microsomes; pH 7.4; 15.0 min; 1.0 µM
Reported Property: half-life (min)

>>> result("CCc1ccc(NC(=O)c2cc3ncccn3n2)cc1")
2.8
>>> result("CC(Nc1nc(N2CCN(S(C)(=O)=O)CC2)nc2ccccc12)c1ccccc1 (stereo unspecified)")
8.03
>>> result("CCOC(=O)C1=C(CN(CC)Cc2ccccc2)NC(=O)NC1c1ccc(OC(C)C)cc1 (stereo unspecified)")
1.2
>>> result("COc1cccc(CNC(=O)c2c(OC)cc(=O)n3c2CCN(C(=O)c2ccc(C)cc2C)CC3)c1")
5.9
>>> result("Cc1ccc2[nH]c(-c3ccccc3)cc(=O)c2c1")
15.9
>>> result("Cc1cnc(CNc2nc(-c3cccc(NS(C)(=O)=O)c3)nc3ccccc23)cn1")
21
>>> result("CCCCCCCC/C=C\\CCCCCCCC(=O)NCCO")
2.33

* * *

conditions: rat; liver microsomes; pH 7.4; 15.0 min; 1.0 µM
Reported Property: half-life (min)

>>> result("CC(C)(C)OC(=O)N1CCN(c2ccc(NCc3ccc(-c4ccc(C#N)cc4)o3)cc2)CC1")
3.62
>>> result("Cc1ccc(CN2CCOC[C@H]2c2ncc(-c3cccc(F)c3)[nH]2)cc1")
2.16
>>> result("COc1ccccc1CNc1ccc(N2CCCCC2)cc1")
2.19
>>> result("Cc1nn2c(c1-c1ccccc1Oc1ccccc1)N(Cc1ccccc1O)CCC2")
1.76
>>> result("OCc1cccc(-c2cc(-c3cccnc3)c3cncn3c2)c1")
22
>>> result("O=C(Nc1nc(-c2ccccc2)cs1)c1ccncc1NS(=O)(=O)c1ccc2ccccc2c1")
8.4
>>> result("Cc1cc(-c2nnc3n2CCCCC3)c(C)n1-c1cccc(C(F)(F)F)c1")
1.9

* * *

Entries annotated with measured half-life
settings: rat; liver microsomes; pH 7.4; 15.0 min; 1.0 µM
Reported Property: half-life (min)

>>> result("Cc1ccc(SC2=NS(=O)(=O)c3ccccc32)c(C)c1")
1.54
>>> result("COc1ccc(NC(=O)c2[nH]c(C)c(C(C)=O)c2C)cc1S(=O)(=O)N1CCCCCC1")
3

* * *

settings: rat; liver microsomes; pH 7.4; 15.0 min; 1.0 µM
Values of half-life strictly less than 6 min map to fulfilled, and values of at least 6 min map to not fulfilled.

>>> assigned_class("Cc1cnc(-c2ccccc2OC(C)C)nc1NCc1ccc(-n2ccnn2)cc1")
"not fulfilled"
>>> assigned_class("CCOc1ccc(CCNC(=O)c2cc3ccccc3n2Cc2cccc(C)n2)cc1OCC")
"fulfilled"
>>> assigned_class("Cc1nn(CCc2nc(-c3ccccc3)cs2)c2[nH]c(=O)cc(C(F)(F)F)c12")
"not fulfilled"
>>> assigned_class("COc1ccccc1Nc1cnc2ccc(-c3ccc(OC)c(OC)c3)nn12")
"not fulfilled"
>>> assigned_class("COc1cccc(NCCC2(c3ccccc3)CC(C)(C)OC(C)(C)C2)c1")
"fulfilled"
>>> assigned_class("COc1ccc(NC(=O)c2ccc[nH]2)cc1S(=O)(=O)Nc1ccc(Br)cc1")
"not fulfilled"
>>> assigned_class("COc1ccc(NC(=O)c2cc(-c3ccc[nH]3)n[nH]2)cc1OC")
"not fulfilled"
>>> assigned_class("Fc1cc(Nc2nc(-c3ccncc3)nc3ccccc23)ccc1-c1cccc(OC(F)F)c1")
"not fulfilled"
>>> assigned_class("Cc1cc(-c2nnc3n2CCCCC3)c(C)n1-c1ccc(Br)cc1")
"fulfilled"
>>> assigned_class("O=C(c1ccc2c(c1)ncn2-c1ccc(C(F)(F)F)cc1)N1CCCCC1")
"not fulfilled"
